# experimentalSystem: HLA-A*33:01
# assay: IEDB peptide-MHC binding, purified MHC/competitive/radioactivity; filed as Kd, often an IC50 or EC50 that approximates it; bounds were set here for any values at or beyond the usual limits of such assays
# recordedConditions: source organism: Mammarenavirus tacaribeense
pKd: −log10 of the molar value.
observationType: pKd

Data request: Fill in the recorded pKd for this sequence, with HLA-A*33:01 as test system: VCPLGLLLK
Data returned: ≤ 4.11

* * *

# experimentalSystem: HLA-B*45:06
# assay: IEDB peptide-MHC binding, purified MHC/competitive/fluorescence; filed as Kd, often an IC50 or EC50 that approximates it; bounds were set here for any values at or beyond the usual limits of such assays
# recordedConditions: source organism: Helicobacter pylori 26695
pKd: −log10 of the molar value.
observationType: pKd

Data request: Suppose we examine the sequence FPIQDFPII ; what pKd value has been reported?
Data returned: ≤ 5.30
